tested on: T1, human VEGFR2 protein (human, UniProt P35968 20-764)
T1 construct: Recombinant protein used in ELISA; also called hu VEGFR2; KDR
T1 sequence (P35968 20-764 limits assumed): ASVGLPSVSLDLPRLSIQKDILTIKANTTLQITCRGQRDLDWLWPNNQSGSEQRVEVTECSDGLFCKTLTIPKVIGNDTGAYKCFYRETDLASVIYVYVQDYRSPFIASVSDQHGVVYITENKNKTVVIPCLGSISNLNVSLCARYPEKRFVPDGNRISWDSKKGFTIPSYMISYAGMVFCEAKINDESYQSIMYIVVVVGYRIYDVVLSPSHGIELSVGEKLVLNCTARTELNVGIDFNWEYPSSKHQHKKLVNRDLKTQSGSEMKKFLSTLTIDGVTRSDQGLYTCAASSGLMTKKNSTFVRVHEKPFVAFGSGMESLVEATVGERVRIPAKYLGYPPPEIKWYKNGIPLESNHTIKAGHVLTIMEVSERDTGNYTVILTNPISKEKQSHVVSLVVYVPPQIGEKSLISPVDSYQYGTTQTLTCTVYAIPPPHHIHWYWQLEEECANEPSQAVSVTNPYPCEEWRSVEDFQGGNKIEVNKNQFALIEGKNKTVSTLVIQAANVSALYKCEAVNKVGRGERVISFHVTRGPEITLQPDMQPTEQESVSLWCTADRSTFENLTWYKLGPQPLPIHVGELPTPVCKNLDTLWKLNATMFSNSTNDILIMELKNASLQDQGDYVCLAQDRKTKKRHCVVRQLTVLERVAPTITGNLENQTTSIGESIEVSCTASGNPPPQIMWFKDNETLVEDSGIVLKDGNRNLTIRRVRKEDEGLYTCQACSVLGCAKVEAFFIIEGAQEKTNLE
measurement protocol: direct titration ELISA, IgG1 null on VEGFR2 protein (FIG. 3B)
endpoint: binding result

binder: MAB05 IgG1 null (antibody, V domains shown, Human IgG1 null format (L234A, L235A, G237A) with human C kappa; only variable domains are tied to the clone) VH: EVQLVESGGGLVQPGGSLRLSCAASGFTFSSYMMSWVRQAPGKGLEWVATISGGGANTYYPDSVKGRFTISRDNAKNSLYLQMNSLRAEDTAVYYCARQLYYFDYWGQGTTVTVSS VL: DIQMTQSPSSLSASVGDRVTITCLASQPLGIWLSWYQQKPGKAPKLLIYTATSLADGVPSRFSGSGSGTDFTLTISSLQPEDFATYYCQQVSVTPFTFGGGTKVEIK
experimental result: binds
--
binder: MAB02A03 IgG1 null (antibody, V domains shown, Human IgG1 null format (L234A, L235A, G237A) with human C kappa; only variable domains are tied to the clone) VH: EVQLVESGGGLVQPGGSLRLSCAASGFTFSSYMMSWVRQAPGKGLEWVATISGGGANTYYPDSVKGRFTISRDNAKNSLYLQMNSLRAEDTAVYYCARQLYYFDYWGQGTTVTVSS VL: DIQMTQSSSSLSASVGDRVTITCLASQGIGPWLSWYQQKPGKAPKLLIYTATSLADGVPSRFSGSGSGTDFTLTISSLQPEDFATYYCQQVYSIPWTFGGGTKVEIK
experimental result: binds
